Data provenance is patent US20210070881A1.

Molecular target: T1, recombinant BACE1 (BACE1 extracellular domain, R&D Systems Cat#931-AS) (UniProt P56817 22-457)
T1 construct: extracellular domain; also called BACE1 extracellular domain protein
T1 sequence (P56817 22-457): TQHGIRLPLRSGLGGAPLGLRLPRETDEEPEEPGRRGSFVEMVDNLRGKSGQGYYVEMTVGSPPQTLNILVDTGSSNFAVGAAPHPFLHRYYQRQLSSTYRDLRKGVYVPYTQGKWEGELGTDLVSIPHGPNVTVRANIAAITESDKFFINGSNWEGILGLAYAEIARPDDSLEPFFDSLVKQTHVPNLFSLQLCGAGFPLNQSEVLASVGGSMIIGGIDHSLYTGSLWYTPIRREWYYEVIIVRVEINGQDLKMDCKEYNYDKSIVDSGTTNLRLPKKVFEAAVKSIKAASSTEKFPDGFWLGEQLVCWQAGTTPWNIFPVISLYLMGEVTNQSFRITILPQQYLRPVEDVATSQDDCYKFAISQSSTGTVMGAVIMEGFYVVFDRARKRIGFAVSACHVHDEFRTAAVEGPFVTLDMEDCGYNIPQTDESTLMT
Experiment: SPR Biacore T200, IgG captured, BACE1 analyte
Kindly state kon for each of the entries shown.
One number for each entry, in M⁻¹ s⁻¹.

binder	kon / M⁻¹ s⁻¹
4H10 (antibody, human IgG1, V domains shown, chimeric, human IgG1/kappa; also called Clone 4H10) VH: EIQLQQSGPELKKPGETVKISCKTSGYTFTTYGMTWVKQAPGKGLKWMGWINTYSGVPIYADDFKGRSAFSLETSASTAYLQINNLENEDTATYFCARRGSTAHYFDYWGQGTTVTVSS VL: DIVLTQSHKFMSTSVGDRVSITCKASQDVSTAVAWYQQKPGQSPKLLIYWASTRHTGVPDRFTGSGSGTDYTLTISSVQAEDLALYYCQQHYSTPYTFGGGTKLELK	96000
1D7 (antibody, human IgG1, V domains shown, chimeric, human IgG1/kappa; also called Clone 1D7) VH: EVKLMESGPGLVAPSQSLSISCTVSGFSLTSYGVDWVRQPPGKGLEWLGVVWGGGSTNYNSALMSRLSISKDNSKSQVFLKMNSLQTDDTAMYYCAKRDYFGGLNVWGTGTTVTVSS VL: DIVMTQTTSPLSVSLGDRVTISCRASQDISKYLNWYQQRPDGTVKLLIYYTSRLHSGVPSRFSGSGSGTDYSLTISNLEQEDIATYFCHQGHKIPYTFGGGTKLELK	59000

Reported kon for 1D2 (antibody, human IgG1, V domains shown, chimeric, human IgG1/kappa; also called Clone 1D2) VH: EVHVKQSGPELKKPGETVTISCKASGYTFTTYGMTWVRQAPGKDLEWMGWINTHSGVPIYADDFKGRFAFSLETSAGTAYLQINNLKNEDTATYFCTRRGRLGHYFDYWGQGTSVTVSS VL: DIVMTQSQKFMSTSVGDRVSVTCKASQNVGTNVAWYQQKPGQSPKLLIYWASTRHTGVPDRFTGSGSGTDFTLTISNVQSEDLADYFCQQYSSYPYTFGGGTKLELK : what is it? 78000
